Values were extracted from ChEMBL document CHEMBL4219106.

pIC50 overview
assay: Antifibrotic activity against TGF-induced Wistar rat cardiac fibroblasts assessed as inhibition of cell proliferation after 12 hrs by MTT assay; format: functional
pIC50: −log10 of the molar value.

[
  {
    "smiles.data": "O=C(N/N=C/c1cc(F)c(F)cc1Cl)N1CCc2ncnc(Nc3ccc(F)c(Cl)c3)c2C1",
    "pIC50": 5.72
  },
  {
    "smiles.data": "Cc1ccc(/C=N/NC(=O)N2CCc3ncnc(Nc4cccc(C(F)(F)F)c4)c3C2)cc1",
    "pIC50": 5.83
  }
]

* * *

biological target: Vascular endothelial growth factor receptor 2 (Homo sapiens, UniProt P35968)
Sequence (P35968 whole entry): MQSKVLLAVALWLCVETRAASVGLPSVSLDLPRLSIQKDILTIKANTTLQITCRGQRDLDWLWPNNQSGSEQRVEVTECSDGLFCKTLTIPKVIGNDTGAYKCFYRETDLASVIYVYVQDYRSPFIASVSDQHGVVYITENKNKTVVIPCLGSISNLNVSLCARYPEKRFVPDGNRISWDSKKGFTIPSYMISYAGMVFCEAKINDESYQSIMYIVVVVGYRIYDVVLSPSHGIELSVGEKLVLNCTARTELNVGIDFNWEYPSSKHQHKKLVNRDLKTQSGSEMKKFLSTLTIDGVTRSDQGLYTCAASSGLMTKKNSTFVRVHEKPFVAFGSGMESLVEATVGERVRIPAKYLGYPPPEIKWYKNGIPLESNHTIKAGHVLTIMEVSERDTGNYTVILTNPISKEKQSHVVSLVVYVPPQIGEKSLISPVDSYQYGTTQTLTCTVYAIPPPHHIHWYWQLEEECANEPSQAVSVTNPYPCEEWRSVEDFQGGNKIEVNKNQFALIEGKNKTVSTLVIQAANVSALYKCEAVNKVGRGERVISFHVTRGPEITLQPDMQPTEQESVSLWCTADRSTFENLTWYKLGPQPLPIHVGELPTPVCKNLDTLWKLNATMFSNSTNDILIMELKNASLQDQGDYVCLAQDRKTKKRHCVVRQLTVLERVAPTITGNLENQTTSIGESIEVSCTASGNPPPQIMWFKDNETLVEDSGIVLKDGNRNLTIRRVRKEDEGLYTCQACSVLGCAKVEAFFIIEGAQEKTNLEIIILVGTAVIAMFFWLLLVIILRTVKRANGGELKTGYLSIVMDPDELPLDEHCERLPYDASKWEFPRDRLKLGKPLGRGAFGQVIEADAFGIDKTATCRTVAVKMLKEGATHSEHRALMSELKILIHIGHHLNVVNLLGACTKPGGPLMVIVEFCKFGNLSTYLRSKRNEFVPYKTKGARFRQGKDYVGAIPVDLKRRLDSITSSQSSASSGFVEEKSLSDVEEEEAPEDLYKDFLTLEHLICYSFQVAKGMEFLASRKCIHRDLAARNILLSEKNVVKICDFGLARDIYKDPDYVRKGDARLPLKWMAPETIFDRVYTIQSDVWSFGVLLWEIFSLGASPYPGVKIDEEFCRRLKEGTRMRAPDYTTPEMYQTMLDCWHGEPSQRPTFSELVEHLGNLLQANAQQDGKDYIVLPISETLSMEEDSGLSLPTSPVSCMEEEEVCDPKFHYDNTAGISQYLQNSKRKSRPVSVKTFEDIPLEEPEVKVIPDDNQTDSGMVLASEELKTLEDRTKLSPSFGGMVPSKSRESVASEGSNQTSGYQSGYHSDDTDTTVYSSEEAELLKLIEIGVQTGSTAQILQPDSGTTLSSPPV
pIC50: −log10 of the molar value.

[
  {
    "smiles.data": "O=C(N/N=C/c1cc(F)c(F)cc1Cl)N1CCc2ncnc(Nc3ccc(F)c(Cl)c3)c2C1",
    "pIC50": 6.77
  }
]
